System: SK-MEL-28 melanoma
Test: NCI-60 one-dose screen, 48 h
Details: 10 µM unless noted
The panel holds about 83,000 compounds, 20% with a hit somewhere; the sample as a whole holds those more often. Calls of active or inactive are those of the source. Rule for the calls: active = growth percent below 10; inactive = the rest.
In this exercise, the only acceptable responses are active, inactive

Below, 5 compounds whose answers are already recorded.
Compound: COc1cccc(C2C(C#N)=C(N)Oc3cc(OCCCCCC[P+](c4ccccc4)(c4ccccc4)c4ccccc4)ccc32)c1 (configuration not stated)
Label value: active
//
Compound: CCCCCCCCCCCCCCCCCCOc1cccc(CC(=O)OCC[N+](CC)(CC)CC)c1
Label value: inactive
//
Compound: CN(C)CCCn1c2nc(=O)[nH]c(=O)c-2nc2cc(Cl)c(Cl)cc21
Label value: inactive
//
Compound: CC[C@@H]1NC(=O)[C@H]([C@H](O)[C@H](C)C/C=C/c2ccc(CN3C(=O)C(C)=C(C)C3=O)cc2)N(C)C(=O)[C@H](C(C)C)N(C)C(=O)[C@H](CC(C)C)N(C)C(=O)[C@H](CC(C)C)N(C)C(=O)[C@@H](C)NC(=O)[C@H](C)NC(=O)[C@H](CC(C)C)N(C)C(=O)[C@H](C(C)C)NC(=O)[C@H](CC(C)C)N(C)C(=O)CN(C)C1=O
Label value: inactive
//
Compound: CN(C)C1CCN(C(=O)c2ccc(NC(=O)Nc3ccc(-c4nc(N5CCOCC5)c5cccn5n4)cc3)cc2)CC1
Label value: active

Status in this test for N#CC(Cc1cccc2ccccc12)c1cc2ccccc2[nH]1 (configuration not stated) ? inactive

Status in this test for CCn1cc(C(=O)NN=C2CCCC2)c(=O)c2ccc(C)nc21 ? inactive

Recorded values, source PubChem BioAssay (NCI).
